System: 15-PGDH luciferase fusion construct in Vaco503 reporter cell line
Experiment: 15-PGDH-luciferase fusion gene reporter induction, V503 cells
Assay type: cell-based
Details: read-out: V503 reporter activity ([…]), […]; % increased luciferase activity over basal level; read-out: V503 reporter activity (7.5 uM)
Below, each entry is listed with its recorded activation at […].
Output spec: scalar in %, unitless text.

CCCCC(=O)c1sc2nc(-c3cccs3)cc(-c3ccccc3)c2c1N: 49.5

Dear colleague, I am looking for the recorded activation at […] of the following compound: C[S+]([O-])c1sc2nc(-c3cccs3)cc(-c3ccccc3)c2c1N (stereo not shown)
61.8

Dear colleague, I am looking for the recorded activation at […] of the following compound: `CCCNC(=O)c1sc2nc(-c3cccs3)cc(-c3ccccc3)c2c1N`
37.6

Dear colleague, I am looking for the recorded activation at […] of the following compound: `CCOC(=O)c1sc2nc(-c3cccs3)cc(-c3ccccc3)c2c1N`
35.8

Dear colleague, I am looking for the recorded activation at […] of the following compound: `NC(=O)c1sc2nc(-c3cccs3)cc(-c3ccc(F)cc3)c2c1N`
-15.2

Dear colleague, I am looking for the recorded activation at […] of the following compound: CCCC[S+]([O-])c1ncccc1N (stereo not shown)
15.4

Dear colleague, I am looking for the recorded activation at […] of the following compound: CCCC[S+]([O-])c1sc2nc(-c3cccs3)nc(-c3ccccc3)c2c1N (stereo not shown)
79.6

Dear colleague, I am looking for the recorded activation at […] of the following compound: CCCCCC[S+]([O-])c1sc2nc(-c3cccs3)cc(-c3ccccc3)c2c1N (stereo not shown)
105

Dear colleague, I am looking for the recorded activation at […] of the following compound: `CS(=O)(=O)c1sc2nc(-c3cccs3)cc(-c3ccccc3)c2c1N`
17.7

Dear colleague, I am looking for the recorded activation at […] of the following compound: `CCCCSc1ncccc1N`
15

Dear colleague, I am looking for the recorded activation at […] of the following compound: `CCOC(=O)c1sc2nc(-c3ccccc3)cc(-c3ccccc3)c2c1N`
-33.7

Dear colleague, I am looking for the recorded activation at […] of the following compound: `CCCCS(=O)(=O)c1sc2nc(-c3cccs3)cc(-c3ccccc3)c2c1N`
83.8

Dear colleague, I am looking for the recorded activation at […] of the following compound: `CCOC(=O)c1sc2nc(-c3cccs3)cc(-c3ccc(F)cc3)c2c1N`
3.13

Dear colleague, I am looking for the recorded activation at […] of the following compound: CCCC[S+]([O-])c1sc2ncccc2c1N (stereo not shown)
96.2

Dear colleague, I am looking for the recorded activation at […] of the following compound: CCCC[S+]([O-])c1sc2nc(-c3ccccc3)nc(-c3ccccc3)c2c1N (stereo not shown)
87.7

Dear colleague, I am looking for the recorded activation at […] of the following compound: CCCCC[S+]([O-])c1sc2nc(-c3cccs3)cc(-c3ccccc3)c2c1N (stereo not shown)
127

---

Tested on: 15-PGDH luciferase fusion construct in Vaco503 reporter cell line
Assay: 15-PGDH-luciferase fusion gene reporter induction, V503 cells
Assay type: cell-based
Details: read-out: V503 reporter activity ([…]), […]; % induction over basal level; Table 17; read-out: V503 reporter activity (7.5 μM)
# cutoff 20% applies to activation at […]; >= gives criterion met, < gives criterion not met

Example cases with answers are listed next.
COc1ccc(OC)c(N(CC(=O)Nc2ccccc2C(=O)NC(C)C)S(=O)(=O)c2ccc(OC)c(OC)c2)c1 [compound 1003378]: criterion not met
COc1ccc(NC(=O)CN(c2ccccc2)S(=O)(=O)c2ccccc2)cc1 [compound 474759]: criterion not met
COc1ccc(N(CC(=O)N/N=C/c2cccnc2)S(=O)(=O)c2ccccc2)c(OC)c1 [compound 396087]: criterion met

Does the reported activation at […] for COc1ccc(N(CC(=O)Nc2cccc(Cl)c2)S(=O)(=O)c2ccc(OC)c(OC)c2)cc1 [compound 408961] fall at or above the 20% mark?
criterion not met

Does the reported activation at […] for CCOC(=O)c1ccc(NC(=O)CN(c2cc(OC)ccc2OC)S(=O)(=O)c2ccc(OC)c(OC)c2)cc1 [compound 1003132] fall at or above the 20% mark?
criterion not met

Does the reported activation at […] for COc1ccc(OC)c(N(CC(=O)Nc2ccccc2F)S(=O)(=O)c2ccccc2)c1 [compound 503270] fall at or above the 20% mark?
criterion met

Does the reported activation at […] for COc1ccc(S(=O)(=O)N(CC(=O)Nc2ccc(Cl)cc2Cl)c2ccccc2)cc1 [compound 543716] fall at or above the 20% mark?
criterion not met

---

System: 15-PGDH luciferase fusion construct in V9m reporter cell line
Assay: 15-PGDH-luciferase fusion gene reporter induction, V9m cells
Format: cell-based
Conditions: read-out: V9M reporter activity ([…]), […]; % induction over basal level; Table 17; read-out: V9M reporter activity (7.5 μM)
Below, each entry is listed with its recorded activation at […].
Output spec: scalar in %, unitless text.

CCc1ccccc1NC(=O)CN(c1ccc(OC)cc1OC)S(=O)(=O)c1ccccc1 [compound 407572]: -6.12
COc1ccc(NC(=O)CN(c2ccccc2)S(=O)(=O)c2ccccc2)cc1 [compound 474759]: 6.4
COc1ccc(N(CC(=O)Nc2cccc(Cl)c2)S(=O)(=O)c2ccc(OC)c(OC)c2)cc1 [compound 408961]: 0.56

Notebook: pull reported activation at […] for 15-PGDH luciferase fusion construct in V9m reporter cell line, entry O=C(CN(c1ccc(F)cc1)S(=O)(=O)c1ccccc1)Nc1cccnc1 [compound 414177]
7.72

Notebook: pull reported activation at […] for 15-PGDH luciferase fusion construct in V9m reporter cell line, entry COc1ccc(N(CC(=O)Nc2ccccc2Br)S(=O)(=O)c2ccc(C)cc2)c(OC)c1 [compound 771138]
6.75

Notebook: pull reported activation at […] for 15-PGDH luciferase fusion construct in V9m reporter cell line, entry COc1ccc(N(CC(=O)Nc2ccc(C(C)=O)cc2)S(=O)(=O)c2ccccc2)cc1Cl [compound 539430]
21.4

Notebook: pull reported activation at […] for 15-PGDH luciferase fusion construct in V9m reporter cell line, entry COc1ccc(OC)c(N(CC(=O)NC(C)c2ccccc2)S(=O)(=O)c2ccc(OC)c(OC)c2)c1 (stereo not shown) [compound 967134]
-2.64

Notebook: pull reported activation at […] for 15-PGDH luciferase fusion construct in V9m reporter cell line, entry COc1ccc(OC)c(N(CC(=O)Nc2ccc(I)cc2C)S(=O)(=O)c2ccccc2)c1 [compound 1003012]
-0.9

---

System: 15-PGDH luciferase fusion construct in Vaco503 reporter cell line
Test: 15-PGDH-luciferase fusion gene reporter induction, V503 cells
Assay type: cell-based
Settings: read-out: V503-3H9-7 reporter activity, % ([…]), V503 reporter cells, […] compound; % induction of luciferase activity over basal level; read-out: V503-3H9-7 reporter activity, % (7.5 μM)
Below, each entry is listed with its recorded activation at […].
Output spec: scalar in %, unitless text.

Field: example entries. Status: answers known.
COc1ccc(OC)c(N(CC(=O)Nc2cc(C)no2)S(=O)(=O)c2ccccc2)c1: 37.8
COc1ccc(OC)c(N(CC(=O)Nc2cccnn2)S(=O)(=O)c2ccccc2)c1: 33
COc1ccc(OC)c(N(CC(=O)Nc2nccs2)S(=O)(=O)c2ccccc2)c1: 90
COc1ccc(OC)c(N(CC(=O)Nc2ccccn2)S(=O)(=O)c2ccccc2)c1: 83.5
COc1ccc(OC)c(N(CC(=O)Nc2cccnc2)S(=O)(=O)c2cccc(C)c2)c1: 52.5
COc1ccc(OC)c(N(CC(=O)Nc2cncc(C)c2)S(=O)(=O)c2ccccc2)c1: 179
COc1ccc(S(=O)(=O)N(CC(=O)Nc2cccnc2)c2cc(C(F)(F)F)ccc2C(F)(F)F)cc1: 39.6
COc1ccc(OC)c(N(CC(=O)Nc2csnc2C)S(=O)(=O)c2ccccc2)c1: 78

Dear colleague, I am looking for the recorded activation at […] of the following compound: `COc1ccc(OC)c(N(CC(=O)N(C)c2cccnc2)S(=O)(=O)c2ccccc2)c1`
65.6

Dear colleague, I am looking for the recorded activation at […] of the following compound: `COc1ccc(OC)c(N(CC(=O)OC(C)(C)C)S(=O)(=O)c2ccccc2)c1`
133

Dear colleague, I am looking for the recorded activation at […] of the following compound: `COc1ccc(OC)c(N(CC(=O)Nc2cccc(Cl)c2)S(=O)(=O)c2ccccc2)c1`
150

Dear colleague, I am looking for the recorded activation at […] of the following compound: `CNC(=O)CN(c1cc(OC)ccc1OC)S(=O)(=O)c1ccccc1`
79.2

Dear colleague, I am looking for the recorded activation at […] of the following compound: `COc1ccc(OC)c(N(CC(=O)Nc2cccnc2)S(=O)(=O)c2ccccc2C#N)c1`
127

Dear colleague, I am looking for the recorded activation at […] of the following compound: `COc1ccc(OC)c(N(CC(=O)N2CCOCC2)S(=O)(=O)c2ccccc2)c1`
149
